- experimental-protocol: Pharmacokinetics, plasma and brain levels by HPLC-PDA
- condition-description: rat, in vivo, ip, 50 mg/kg
quantity-measured: tmax
Give your result as the value with the unit written after it.

Prompt line: So what does the record say about tmax for Fc1ccc(CCCCN2CCN(c3ccccn3)CC2)cc1 ?
Response line: 10.2 min

---

- experimental-protocol: Pharmacokinetics, plasma and brain levels by HPLC-PDA
- condition-description: rat, in vivo, ip, 50 mg/kg
quantity-measured: Cmax
Give your result as the value with the unit written after it.

Prompt line: So what does the record say about Cmax for Fc1ccc(CCCCN2CCN(c3ccccn3)CC2)cc1 ?
Response line: 63500 ng/g

---

- assay-system: D2R (Homo sapiens, UniProt P14416)
- Sequence (P14416 whole entry): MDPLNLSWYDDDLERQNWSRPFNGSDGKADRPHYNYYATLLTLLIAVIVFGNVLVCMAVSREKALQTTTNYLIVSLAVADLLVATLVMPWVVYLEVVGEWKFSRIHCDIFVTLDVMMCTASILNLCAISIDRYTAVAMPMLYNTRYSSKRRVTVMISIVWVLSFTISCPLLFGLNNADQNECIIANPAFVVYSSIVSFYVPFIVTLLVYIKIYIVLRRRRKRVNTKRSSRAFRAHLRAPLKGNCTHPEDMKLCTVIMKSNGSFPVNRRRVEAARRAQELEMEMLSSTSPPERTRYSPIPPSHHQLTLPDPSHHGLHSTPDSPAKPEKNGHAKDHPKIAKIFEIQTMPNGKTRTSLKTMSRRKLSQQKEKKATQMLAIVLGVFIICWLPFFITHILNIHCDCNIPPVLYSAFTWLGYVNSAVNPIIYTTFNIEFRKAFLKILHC
quantity-measured: Ki (nM)
# output: bare number, implied unit nM

Prompt line: # value lookup — system D2R (Homo sapiens, UniProt P14416), readout Ki, item Fc1ccc(CCCCN2CCN(c3ccc(Cl)cc3)CC2)cc1
Response line: 284
